- Tested on: DU-145 prostate
- Protocol notes: NCI-60 one-dose screen, 48 h
- Protocol conditions: 10 µM unless noted
- Protocol: Cells are grown in 96 well plates and exposed to the test compound for 48 hours. Compounds are tested at a single concentration, which is 10^-5 M for most compounds. The reported endpoint is percent growth (GI% or GIPRCNT), where numbers from 0 - 100% represent growth inhibition, and numbers from -100% - 0 represent cell death. For example, a value of 40 represents 60% growth inhibition. A value of 0 means no net growth occurred over the course of the experiment. […]
About 83,000 compounds went through this panel and 20% of them were active in at least one assay; those are over-represented in the sample as a whole. The source made the active and inactive calls. Rule for the calls: active = growth percent below 10; inactive = the rest.
Entry note: the call must match one of 1.0 (active), 0.0 (inactive)

{"columns": ["Compound", "Class name"],
 "data": [
  ["C/C(=N\\Nc1cc(C)nc2ccc(Br)cc12)c1ccc([N+](=O)[O-])cc1", 0.0],
  ["COc1cc(C(=O)Nc2cc3c(cc2Oc2cc(C)cc(C)c2)C(=O)N(C)[C@@H](CC(=O)N(C)O)C(=O)N3)c(Br)c(OC)c1OC", 1.0],
  ["CN1CCN(C(=O)[C@]23CCC(C)(C)C[C@H]2C2=CC[C@@H]4[C@@]5(C)C/C(=C/c6cccnc6)C(=O)C(C)(C)[C@@H]5CC[C@@]4(C)[C@]2(C)CC3)CC1", 0.0]
]}

Given COc1ccc(C(=O)/C=C/c2cc3ccccc3n3nnnc23)cc1 , state the outcome it received in this test.
0.0

I'd appreciate the recorded outcome for Cn1ccc2c1CC1CN(Cc3ccco3)C(=O)C1C2C(=O)O (centres undefined) from this test.
0.0

Per the assay record, what outcome was assigned to Cc1ccc(NC(=O)c2cc(-c3nc4ccccc4s3)c(=O)n(NS(=O)(=O)c3ccc(Cl)cc3)c2N)cc1 ?
0.0

Answer briefly: the call reported for Cc1cc2c(c(C)c1Cl)C(=O)/C(=C/c1ccc(O)c(O)c1)O2 in this assay.
0.0

# lookup: test call for O=S(=O)(NCCNc1nccc(-c2c(-c3cccc(F)c3)nc3sccn23)n1)c1ccc(Br)cc1
0.0

What outcome does the record of this test show for NC(=NCCCOc1ccc(F)cc1)Nc1ccc(Cl)cc1 ?
0.0
